- Test system: Glomerella lagenarium (Colletotrichum lagenarium)
- Assay Procedure: Glomerella lagenarium (Colletotrichum lagenarium) / liquid culture (anthracnose)
- Assay type: cell-based
- Conditions: Colletotrichum orbiculare, PDB potato dextrose broth, 24° C., 3-4 days after application, read-out: disease control (inhibition of growth measured photometrically)
Quantity: inhibition at 200 ppm

Give the measured inhibition at 200 ppm of O=C(OCc1cccc2ccccc12)c1cc2c(cc1F)COB2O [Compound 394] . ≥ 80%

Give the measured inhibition at 200 ppm of COCCOC(=O)c1cc2c(cc1Cl)COB2O [Compound 224] . ≥ 80%

Give the measured inhibition at 200 ppm of O=C(OCC1CCSCC1)c1cc2c(cc1F)COB2O [Compound 380] . ≥ 80%

Give the measured inhibition at 200 ppm of COc1ccc(OCCOC(=O)c2cc3c(cc2F)COB3O)cc1 [Compound 406] . ≥ 80%

Give the measured inhibition at 200 ppm of O=C(OCc1ccc(C(F)(F)F)nc1)c1cc2c(cc1Cl)COB2O [Compound 217] . ≥ 80%

Give the measured inhibition at 200 ppm of O=C(OCCC(F)(F)F)c1ccc2c(c1)B(O)OC2 [Compound 369] . ≥ 80%

Give the measured inhibition at 200 ppm of Cc1ccccc1NC(=O)c1cc2c(cc1Cl)COB2O [Compound 112] . ≥ 80%

Give the measured inhibition at 200 ppm of C#CCCCOC(=O)c1cc2c(cc1Cl)COB2O [Compound 208] . ≥ 80%

Give the measured inhibition at 200 ppm of CCCCCCCOC(=O)c1cc2c(cc1Cl)COB2O [Compound 195] . ≥ 80%

Give the measured inhibition at 200 ppm of O=C(OCC1CC1)c1cc2c(cc1F)COB2O [Compound 388] . ≥ 80%
